// data source = ChEMBL document CHEMBL4196094

# target.under.test: UniProt G1C7A4
# test.details: Inhibition of Acinetobacter baumannii PBP1b transglycosylase activity at 200 uM using NBD-lipid 2 as substrate after 2 hrs by muramidase enzyme coupled HPLC analysis relative to control
assay.endpoint: inhibition

1. CCCCCCCCCCCCn1cc(CO[C@H](CP(=O)(O)OCCCN(Cc2ccc(-c3ccccc3)cc2)Cc2ccc(-c3ccccc3)cc2)C(=O)OCC)nn1 ... 99%
2. CCCCCCCCCCCCn1cc(CO[C@H](CP(=O)(O)OCCNCc2ccc(-c3ccccc3)cc2)C(=O)OCC)nn1 ... 99%

stdin: Supply measured inhibition of `CCCCCCCCCCCCn1cc(CO[C@H](CP(=O)(O)OCCCNCc2ccc(-c3ccccc3)cc2)C(=O)OCC)nn1` in your reply.
stdout: 34%

stdin: Supply measured inhibition of `CCCCCCCCCCCCn1cc(CO[C@H](CP(=O)(O)OCCCN(C)Cc2ccc(-c3ccccc3)cc2)C(=O)OCC)nn1` in your reply.
stdout: 99%

====

molecules and their reported pIC50
Protein target, amino acids: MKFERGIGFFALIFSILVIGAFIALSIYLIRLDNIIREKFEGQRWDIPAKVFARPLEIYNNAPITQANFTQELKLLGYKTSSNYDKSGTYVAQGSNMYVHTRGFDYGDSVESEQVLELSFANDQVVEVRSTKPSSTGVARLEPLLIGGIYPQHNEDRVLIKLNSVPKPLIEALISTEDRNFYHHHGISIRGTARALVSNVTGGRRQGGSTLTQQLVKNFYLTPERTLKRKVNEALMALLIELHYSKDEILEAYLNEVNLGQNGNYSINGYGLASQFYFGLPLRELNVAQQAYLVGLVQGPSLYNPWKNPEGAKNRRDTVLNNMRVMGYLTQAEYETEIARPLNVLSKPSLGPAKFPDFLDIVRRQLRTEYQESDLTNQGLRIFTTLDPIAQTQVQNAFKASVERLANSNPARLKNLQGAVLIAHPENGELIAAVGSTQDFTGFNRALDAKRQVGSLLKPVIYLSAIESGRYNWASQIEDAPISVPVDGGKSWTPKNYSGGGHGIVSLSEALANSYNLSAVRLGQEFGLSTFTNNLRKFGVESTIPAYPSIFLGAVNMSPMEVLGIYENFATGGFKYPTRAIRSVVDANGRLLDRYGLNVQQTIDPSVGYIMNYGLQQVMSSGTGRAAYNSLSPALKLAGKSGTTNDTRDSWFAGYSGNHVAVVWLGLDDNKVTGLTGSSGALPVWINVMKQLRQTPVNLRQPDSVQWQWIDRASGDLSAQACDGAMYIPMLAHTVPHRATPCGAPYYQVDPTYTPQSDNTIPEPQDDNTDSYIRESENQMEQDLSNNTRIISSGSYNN
Lab note — pIC50 values are minus log10 of concentrations in M.

1) CCCCCCCCCCCCn1cc(CO[C@H](CP(=O)(O)OCCCN(Cc2ccc(-c3ccccc3)cc2)Cc2ccc(-c3ccccc3)cc2)C(=O)OCC)nn1 ... 4.06

stdin: For the molecule `CCCCCCCCCCCCn1cc(CO[C@H](CP(=O)(O)OCCCN(C)Cc2ccc(-c3ccccc3)cc2)C(=O)OCC)nn1` , give its reported pIC50.
stdout: 3.82

stdin: Find the measured pIC50 of `CCCCCCCCCCCCn1cc(CO[C@H](CP(=O)(O)OCCNCc2ccc(-c3ccccc3)cc2)C(=O)OCC)nn1` and report it.
stdout: 3.80

====

Item-by-item account of inhibition
# target.under.test: Penicillin-binding protein 1B (Acinetobacter baumannii) (UniProt G1C7A4)
# Sequence (whole entry): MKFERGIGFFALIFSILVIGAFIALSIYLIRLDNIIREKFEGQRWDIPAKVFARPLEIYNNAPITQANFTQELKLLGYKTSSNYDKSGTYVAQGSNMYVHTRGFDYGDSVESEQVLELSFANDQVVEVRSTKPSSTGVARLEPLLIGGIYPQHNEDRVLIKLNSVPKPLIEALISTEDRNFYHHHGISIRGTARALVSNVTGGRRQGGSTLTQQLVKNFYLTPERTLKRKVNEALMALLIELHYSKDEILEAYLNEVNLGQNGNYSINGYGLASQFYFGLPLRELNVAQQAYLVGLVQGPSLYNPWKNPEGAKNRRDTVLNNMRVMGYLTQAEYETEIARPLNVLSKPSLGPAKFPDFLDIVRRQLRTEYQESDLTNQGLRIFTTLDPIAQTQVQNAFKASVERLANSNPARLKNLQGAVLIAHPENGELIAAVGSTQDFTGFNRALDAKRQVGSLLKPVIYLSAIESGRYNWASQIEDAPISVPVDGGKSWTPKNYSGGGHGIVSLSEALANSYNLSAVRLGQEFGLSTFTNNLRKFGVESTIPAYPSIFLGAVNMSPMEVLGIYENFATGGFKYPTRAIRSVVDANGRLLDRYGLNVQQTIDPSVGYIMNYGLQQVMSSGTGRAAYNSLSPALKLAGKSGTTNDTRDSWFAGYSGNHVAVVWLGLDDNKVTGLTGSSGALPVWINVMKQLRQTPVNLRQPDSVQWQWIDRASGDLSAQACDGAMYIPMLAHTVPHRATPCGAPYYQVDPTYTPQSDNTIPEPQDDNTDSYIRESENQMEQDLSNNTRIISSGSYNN
# test.details: Inhibition of Acinetobacter baumannii PBP1b transglycosylase activity at 500 uM using NBD-lipid 2 as substrate after 2 hrs by muramidase enzyme coupled HPLC analysis relative to control

Worked cases, inhibition given:
1. CCCCCCCCCCCCn1cc(CO[C@H](CP(=O)(O)OCCCN(Cc2ccc(-c3ccccc3)cc2)C(=O)OCC(Cl)(Cl)Cl)C(=O)O)nn1 ... < 5%
2. CCCCCCCCCCCCn1cc(CO[C@H](CP(=O)(O)OCCCNC(=O)c2ccc(-c3ccccc3)cc2)C(=O)O)nn1 ... < 5%

stdin: Give reported inhibition value for `CCCCCCCCCCCCn1cc(CO[C@H](CP(=O)(O)OCCCNC(=O)c2ccc(-c3ccccc3)cc2)C(=O)OCC)nn1`
stdout: < 5%
